The following binders are listed with their measured IC50 values.
- targetEntity: HLA-B*44:02 (human)
- assayProtocol: radioligand competition, purified MHC

binder | IC50
APHGHVMVEL (modifications not checked) [… (SEQ ID NO: 14)] | > 70 µM
KNIDGYFKIY (modifications not checked) [… (SEQ ID NO: 36)] | > 70 µM
FASEAARVV (modifications not checked) [… (SEQ ID NO: 17)] | > 70 µM
KAFQLTPIAV (modifications not checked) [… (SEQ ID NO: 13)] | > 70 µM
QLTPTWRVY (modifications not checked) [… (SEQ ID NO: 38)] | > 70 µM
EIKESVQTF (modifications not checked) [… (SEQ ID NO: 15)] | 37.2 µM
ELPDEFVVVTV (modifications not checked) [… (SEQ ID NO: 8)] | > 70 µM
LEDKAFQL (modifications not checked) [LEDKAFQL (SEQ ID NO: 10)] | 35.4 µM
